# method: Cmax in monkey plasma at 20 mg/kg, po measured up to 24 hrs by LC/MS analysis
# Type: ADME, organism-based, Macaca mulatta
# Design: dose 20 mg/kg, route oral
# applied conditions: rhesus monkey
readout: Cmax
State the result as a value with its unit after it.

Here's what some known entries look like.
>>> result("Cn1nccc1S(=O)(=O)N1CCC2=Cc3c(cnn3-c3ccc(F)cc3)C[C@]2(C(=O)c2cc(C(F)(F)F)ccn2)C1")
"16 ng/mL"
>>> result("CCn1nccc1S(=O)(=O)N1CCC2=Cc3c(cnn3-c3ccc(F)cc3)C[C@]2(C(=O)c2cc(C(F)(F)F)ccn2)C1")
"20.8 ng/mL"

--- query ---
Q. Look up Cmax: `Cn1cc(S(=O)(=O)N2CCC3=Cc4c(cnn4-c4ccc(F)cc4)C[C@]3(C(=O)c3cc(C(F)(F)F)ccn3)C2)cn1`
A. 1140 ng/mL

----------
# target: Cytochrome P450 3A4 (Homo sapiens, UniProt P08684)
# Sequence (P08684 whole entry): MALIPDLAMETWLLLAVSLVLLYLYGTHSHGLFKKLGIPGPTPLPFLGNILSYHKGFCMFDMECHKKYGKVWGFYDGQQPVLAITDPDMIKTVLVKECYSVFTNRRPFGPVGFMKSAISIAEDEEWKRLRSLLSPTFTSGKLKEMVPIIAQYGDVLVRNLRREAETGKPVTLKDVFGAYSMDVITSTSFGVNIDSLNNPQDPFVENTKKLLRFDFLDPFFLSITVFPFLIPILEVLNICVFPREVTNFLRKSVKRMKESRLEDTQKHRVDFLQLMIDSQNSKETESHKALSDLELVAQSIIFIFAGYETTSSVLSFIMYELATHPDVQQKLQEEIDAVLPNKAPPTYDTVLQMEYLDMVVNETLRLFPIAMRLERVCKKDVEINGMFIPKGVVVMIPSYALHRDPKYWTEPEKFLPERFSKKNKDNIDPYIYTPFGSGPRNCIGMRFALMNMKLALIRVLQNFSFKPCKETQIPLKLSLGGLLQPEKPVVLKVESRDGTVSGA
readout: pIC50
Give bare numbers, as −log10 of the molar value.

Q. Look up pIC50: `Cn1cc(S(=O)(=O)N2CCC3=Cc4c(cnn4-c4ccc(F)cc4)C[C@]3(C(=O)c3cc(C(F)(F)F)ccn3)C2)cn1`
A. 5.89

----------
# target: Glucocorticoid receptor (Homo sapiens)
# Sequence (P04150 whole entry): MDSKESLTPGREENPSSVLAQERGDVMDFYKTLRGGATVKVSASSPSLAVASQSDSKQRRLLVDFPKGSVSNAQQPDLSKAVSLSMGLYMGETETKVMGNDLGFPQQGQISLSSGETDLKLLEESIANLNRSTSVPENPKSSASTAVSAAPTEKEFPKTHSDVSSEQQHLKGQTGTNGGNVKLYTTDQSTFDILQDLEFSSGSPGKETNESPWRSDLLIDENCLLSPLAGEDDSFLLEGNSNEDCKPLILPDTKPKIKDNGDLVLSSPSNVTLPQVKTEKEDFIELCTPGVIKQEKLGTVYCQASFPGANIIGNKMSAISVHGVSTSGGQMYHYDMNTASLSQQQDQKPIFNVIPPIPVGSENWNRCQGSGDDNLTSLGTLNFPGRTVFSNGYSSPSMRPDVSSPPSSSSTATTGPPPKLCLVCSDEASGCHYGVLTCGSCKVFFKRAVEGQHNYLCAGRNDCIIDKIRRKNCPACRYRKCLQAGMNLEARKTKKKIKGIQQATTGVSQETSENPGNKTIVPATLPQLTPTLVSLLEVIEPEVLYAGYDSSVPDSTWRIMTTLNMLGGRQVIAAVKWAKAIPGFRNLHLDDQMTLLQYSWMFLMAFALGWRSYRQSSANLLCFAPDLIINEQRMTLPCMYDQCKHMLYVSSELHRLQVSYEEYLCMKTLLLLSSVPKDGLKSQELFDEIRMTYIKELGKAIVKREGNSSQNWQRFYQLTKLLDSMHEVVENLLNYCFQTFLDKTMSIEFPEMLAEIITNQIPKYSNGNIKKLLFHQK
# method: Displacement of fluormone GS Red from human glucocorticoid receptor after 4 hrs by fluorescence polarization assay
readout: Ki (nM)
Numbers only, in nM.

Batch: Ki for all items listed.
1. CCc1ccnc(C(=O)[C@]23Cc4cnn(-c5ccc(F)cc5)c4C=C2CCN(S(=O)(=O)c2cccc(C#N)c2)C3)c1
2. N#Cc1cccc(S(=O)(=O)N2CCC3=Cc4c(cnn4-c4ccc(F)cc4)C[C@]3(C(=O)c3cc(C(F)(F)F)ccn3)C2)c1
3. Cc1ccnc(C(=O)[C@]23Cc4cnn(-c5ccc(F)cc5)c4C=C2CCN(S(=O)(=O)c2ccc(F)c(F)c2)C3)c1
4. O=C(c1nccs1)[C@]12Cc3cnn(-c4ccc(F)cc4)c3C=C1CCN(S(=O)(=O)c1cccc(C(F)(F)F)c1)C2
5. Cc1cnc(C(=O)[C@]23Cc4cnn(-c5ccc(F)cc5)c4C=C2CCN(S(=O)(=O)c2ccc(Cl)c(Cl)c2)C3)s1

A.
1. 0.19
2. 0.32
3. 0.14
4. 0.48
5. 0.32

----------
# target: Cytochrome P450 2C8 (Homo sapiens)
# Sequence (P10632 whole entry): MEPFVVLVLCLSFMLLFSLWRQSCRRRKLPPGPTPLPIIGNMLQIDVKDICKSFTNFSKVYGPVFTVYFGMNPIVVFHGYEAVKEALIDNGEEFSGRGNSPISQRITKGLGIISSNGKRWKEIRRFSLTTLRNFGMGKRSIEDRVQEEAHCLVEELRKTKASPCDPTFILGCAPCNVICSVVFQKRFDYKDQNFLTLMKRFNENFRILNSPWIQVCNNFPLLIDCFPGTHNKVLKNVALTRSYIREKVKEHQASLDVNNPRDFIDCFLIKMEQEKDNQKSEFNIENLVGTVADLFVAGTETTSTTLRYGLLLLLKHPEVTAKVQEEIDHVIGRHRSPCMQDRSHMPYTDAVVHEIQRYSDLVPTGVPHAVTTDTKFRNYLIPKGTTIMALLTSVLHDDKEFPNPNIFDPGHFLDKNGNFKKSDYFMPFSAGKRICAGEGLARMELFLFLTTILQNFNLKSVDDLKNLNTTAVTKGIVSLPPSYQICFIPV
readout: pIC50
One number for each entry, as −log10 of the molar value.

Q. Look up pIC50: Cn1cc(S(=O)(=O)N2CCC3=Cc4c(cnn4-c4ccc(F)cc4)C[C@]3(C(=O)c3cc(C(F)(F)F)ccn3)C2)cn1 [RELACORILANT]
A. 6.68

----------
# target: progesterone receptor (Homo sapiens)
# Sequence (P06401 whole entry): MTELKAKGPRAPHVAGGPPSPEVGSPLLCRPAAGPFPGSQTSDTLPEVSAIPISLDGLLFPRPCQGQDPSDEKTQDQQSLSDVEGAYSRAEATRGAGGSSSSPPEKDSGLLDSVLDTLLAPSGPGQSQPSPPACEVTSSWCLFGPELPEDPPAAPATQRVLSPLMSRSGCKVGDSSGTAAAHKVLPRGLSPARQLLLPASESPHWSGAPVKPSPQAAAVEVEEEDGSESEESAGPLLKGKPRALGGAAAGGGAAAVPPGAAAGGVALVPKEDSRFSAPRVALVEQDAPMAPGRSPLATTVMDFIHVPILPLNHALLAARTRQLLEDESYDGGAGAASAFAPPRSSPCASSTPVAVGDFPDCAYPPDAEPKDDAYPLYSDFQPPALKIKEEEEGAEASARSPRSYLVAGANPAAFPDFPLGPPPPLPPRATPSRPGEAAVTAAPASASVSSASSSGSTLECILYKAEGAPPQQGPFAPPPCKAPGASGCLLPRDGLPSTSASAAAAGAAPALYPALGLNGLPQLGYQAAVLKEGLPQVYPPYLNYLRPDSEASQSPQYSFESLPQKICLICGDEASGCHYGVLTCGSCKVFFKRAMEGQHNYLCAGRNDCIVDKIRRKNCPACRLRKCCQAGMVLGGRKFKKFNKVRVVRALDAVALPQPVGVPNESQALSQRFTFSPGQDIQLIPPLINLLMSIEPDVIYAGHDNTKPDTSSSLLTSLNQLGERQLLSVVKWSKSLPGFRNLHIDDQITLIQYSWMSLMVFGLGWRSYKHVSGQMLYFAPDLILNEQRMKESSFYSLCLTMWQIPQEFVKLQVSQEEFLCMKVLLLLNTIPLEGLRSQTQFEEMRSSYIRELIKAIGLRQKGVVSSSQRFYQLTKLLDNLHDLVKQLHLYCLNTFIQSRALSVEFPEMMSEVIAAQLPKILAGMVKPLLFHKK
# method: Inhibition of radioligand binding to progesterone receptor (unknown origin) at 1 uM relative to control
readout: inhibition at 1 µM

Q. Look up inhibition at 1 µM: `Cn1cc(S(=O)(=O)N2CCC3=Cc4c(cnn4-c4ccc(F)cc4)C[C@]3(C(=O)c3cc(C(F)(F)F)ccn3)C2)cn1`
A. < 10%

----------
Kindly supply the reported Cmax values for the records listed here.
# method: Cmax in Sprague-Dawley CD-1 rat plasma at 3 mg/kg, po administered as cassette dose via gavage measured up to 24 hrs by LC/MS analysis
# Assay type: ADME, organism-based
# Parameters: dose 3 mg/kg, route oral
Numbers only, in ng/mL.

Here's what some known entries look like.
>>> numeric_readout("O=C(c1ccccn1)[C@]12Cc3cnn(-c4ccc(F)cc4)c3C=C1CCN(S(=O)(=O)c1cc(F)cc(F)c1)C2")
72
>>> numeric_readout("Cc1ccnc(C(=O)[C@]23Cc4cnn(-c5ccc(F)cc5)c4C=C2CCN(S(=O)(=O)c2ccc(C(F)(F)F)c(F)c2)C3)c1")
48
>>> numeric_readout("Cc1ccnc(C(=O)[C@]23Cc4cnn(-c5ccc(F)cc5)c4C=C2CCN(S(=O)(=O)c2ccc(F)c(F)c2)C3)c1")
113

--- query ---
Q. Look up Cmax: `Cc1c(S(=O)(=O)N2CCC3=Cc4c(cnn4-c4ccc(F)cc4)C[C@]3(C(=O)c3cc(C(F)(F)F)ccn3)C2)cnn1C`
A. 110
